Molecular target: T1, DFNB31_2, Q9P202
T1 sequence (Q9P202 274-371, limits assumed, looked up): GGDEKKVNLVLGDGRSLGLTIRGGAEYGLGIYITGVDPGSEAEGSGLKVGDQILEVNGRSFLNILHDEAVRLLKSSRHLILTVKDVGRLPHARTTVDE
Test: holdup assay
Parameters: key: below the threshold = too weak to quantify, mostly under pKd 3.1 to 4
Conditions: plain residues with an end cap or a label only (N-terminal biotin on a linker: ado-ado)
PROPERTY: pKd

IKLETKKTKL [SLC15A2, Q16348] | 3.55
NKSEPFLTWL [WWTR1, Q9GZV5] | below the threshold
KKTPVSRSHL [SLC22A3, O75751] | below the threshold
MQILSKPEFI [NPSR1, Q6W5P4] | below the threshold
